# assay-remarks: gradient 5% acetonitrile 3 min, to 50% in 2 min, to 85% in 15 min, held 3 min, 100 µL/min
# condition-context: column: Zorbax Extend-C18 2.1 x 50 mm; eluents: water / acetonitrile, 0.1% formic acid
quantity-name: RP-LC retention time (s)

Recorded RP-LC retention time, per entry:
# compound, unit-symbol, readout-number
measured = [
    ("O=C(Nc1cc(F)cc(F)c1)c1c(O)c2cccnc2n(-c2ccc(F)cc2)c1=O", "s", 918),
    ("CCS(=O)(=O)N1CC(=O)N(c2ccc(F)cc2)C(C)(C(=O)NCc2ccc(F)cc2)C1 (centres undefined)", "s", 743),
    ("O=C(NCc1ccccn1)c1ccc2c(c1)N(CC(=O)N1CCCC1)C(=O)CO2", "s", 573),
]

1: COc1cc(OC)cc(-c2noc(CCn3nc(-c4ccccc4)ccc3=O)n2)c1
2: Cc1cccc(NC(=O)CN2CCC(COCc3ccccc3)CC2)c1C
Input: Compare 1 and 2 and name the one whose reported RP-LC retention time is smaller. Lab note: record the label of whichever item you select.
Output: 2
(2: 610 s, 1: 951 s)

1: O=C(NC1CCCCCC1)C1CCN(S(=O)(=O)c2ccc(-c3noc(C4CC4)n3)cc2)CC1
2: CCN(C(=O)c1ccccc1C)c1nc(-c2ccccc2)cs1
Input: Compare 1 and 2 and name the one whose reported RP-LC retention time is smaller. Lab note: record the label of whichever item you select.
Output: 1
(1: 836 s, 2: 1260 s)

====

# assay-remarks: gradient 5% acetonitrile 3 min, to 50% in 2 min, to 85% in 15 min, held 3 min, 100 µL/min
# condition-context: column: Zorbax Extend-C18 2.1 x 50 mm; eluents: water / acetonitrile, 0.1% formic acid
quantity-name: RP-LC retention time (s)

Recorded RP-LC retention time, per entry:
# molecule, RP-LC retention time [s]
measured = [
    ("O=C(CSc1ccc(-c2ccc3c(c2)OCO3)nn1)c1cccs1", 854),
    ("COCc1nc(C2CCN(C(=O)C3CCC3)C2)no1 (stereo not given)", 672),
    ("O=C(CC1CCCC1)N1[C@H]2CC[C@@H]1c1cnc(-c3ccccc3)nc1C2", 1000),
]

I: O=C(Cn1nc2n(c1=O)CCCC2)Nc1cccc(Cl)c1
II: COc1ccc(NC(=O)c2cc(C)n3nc(C)cc3n2)c(C)c1
Input: Compare I and II and name the one whose reported RP-LC retention time is smaller. Lab note: record the label of whichever item you select.
Output: I

====

# assay-remarks: gradient 5% acetonitrile 3 min, to 50% in 2 min, to 85% in 15 min, held 3 min, 100 µL/min
# condition-context: column: Zorbax Extend-C18 2.1 x 50 mm; eluents: water / acetonitrile, 0.1% formic acid
quantity-name: RP-LC retention time (s)

# compound, RP-LC retention time (s)
records = [
    ("C=CCn1c(C)c(CC(=O)N2CCCC2)c(=O)n2nc(-c3ccc(C)cc3)nc12", 789),
    ("CC(C)NC(=O)c1ccc(OCC2CCN(C(=O)C3CCCO3)CC2)cc1 (centres undefined)", 697),
    ("Cc1ccccc1-c1nc(-c2ccc(-n3ccnc3)nc2)no1", 814),
    ("O=C(/C=C/c1ccccc1)NC(NC(=S)Nc1ccc(Cl)cc1)C(Cl)(Cl)Cl (centres undefined)", 1030),
    ("Cc1cccc(-c2cc(C(N)=O)c3ccccc3n2)c1", 816),
    ("COc1cc(NS(=O)(=O)c2cc3n(c2)CCN(C(C)C)C3=O)cc(OC)c1", 748),
]

P: CN(C)Cc1ccc(S(=O)(=O)n2ccc(/C=C/C(=O)NO)c2)cc1
Q: Cc1ccsc1CN1CCn2c(nnc2[C@@H]2C[C@@H](O)CN2Cc2cccnc2)C1
Input: When their RP-LC retention time values are compared, which is larger, P or Q ? Lab note: record the label of whichever item you select.
Output: P
(P: 936 s, Q: 591 s)
